Origin of values: PubChem BioAssay (NCATS)

System: KB-3-1
ASSAY_NAME: Cytotoxic Profiling of Annotated Libraries Using Quantitative High-Throughput Screening (AID 1296008); also: % is scaled to controls: 0 for no effect and ±100 for the full control effect; nearly all actives have a fitted effect of over 60% in size
TEST_PARAMETERS: Five cell lines viability, CellTiter-Glo ATP luminescence, 48-72 h; active compounds read low
Records with an inconclusive call do not appear.
RECORDED_ENDPOINT: max response (%)
One number for each entry, in %.

// worked examples, max response included
| MOLECULE | max response [%] |
| --- | --- |
| C[C@]12CC[C@H](O)CC1=CC[C@@H]1[C@H]2CC[C@]2(C)C(c3cccnc3)=CC[C@H]12 | -14.4 |
| COc1ccccc1-c1cccc(-c2c(O)c3cc(C#N)c(Cl)cc3[nH]c2=O)c1 | -25.1 |
| CC(=O)NC(C)c1ccc(Oc2ccc(OC(C)C)cc2)cc1 (stereo unspecified) | 7.61 |
| COCCNCCCn1c(C(=O)CF)c(-c2ccc(C)cc2)c2c(N)ncnc21 | -1.17 |
| Cc1cn[nH]c1 | 12.8 |

For `Cc1cccc(-c2nn(C(=S)Nc3ccccc3)cc2-c2ccnc3ccccc23)n1` , write its max response. -23.5
